Some compounds, each annotated with its measured Growth Inhibition.
Test system: Plasmodium falciparum
Assay: MMV: Measure of pLDH activity as indication of parasite viability. Gametocytogenesis of 3D7 Plasmodium falciparum strain was induced in vitro and asexual parasites were depleted with N-acetylglucosamine. Gametocytes were treated with dihydroartemisinin, epoxomicin, methylene blue, primaquine, puromycin or chloroquine in 96-well plates and the pLDH activity was evaluated using a modified Makler protocol. Mosquito infectivity was measured by the standard membrane feeding assay.
Assay type: functional
Parameters: concentration or dose not given beside the values

{"Compound": "COc1cccc(Nc2nc(NCCO)c3ccccc3n2)c1.Cl", "Unit abbreviation": "%", "Growth Inhibition": 21.665}
{"Compound": "CNCCCNc1ccnc2cc(Cl)ccc12", "Unit abbreviation": "%", "Growth Inhibition": -4.352}
{"Compound": "OC1CCCCC1C1(NC(=S)Nc2ccccc2)CCCCC1 (stereo not drawn)", "Unit abbreviation": "%", "Growth Inhibition": -6.2185}
{"Compound": "C[n+]1c2ccccc2nc2ccc(NCCO)cc21", "Unit abbreviation": "%", "Growth Inhibition": 16.8202}
{"Compound": "CC(C)CCNCC(O)Cn1c2ccccc2c2ccccc21.Cl (stereo not drawn)", "Unit abbreviation": "%", "Growth Inhibition": 62.6796}
{"Compound": "CCOc1cc(Cl)c(C(C)NC(=O)c2ccccc2)cc1OCC (stereo not drawn)", "Unit abbreviation": "%", "Growth Inhibition": 3.3956}
{"Compound": "CCOC(=O)C1=C(C)N=c2sc(=Cc3cc(Cl)ccc3O)c(=O)n2C1c1ccc(OC)cc1 (stereo not drawn)", "Unit abbreviation": "%", "Growth Inhibition": 18.9955}
{"Compound": "O=C(Nc1ccc(-c2nc3cc4ccccc4cc3[nH]2)cc1)c1cccc(Br)c1", "Unit abbreviation": "%", "Growth Inhibition": 12.54}

---

System: Plasmodium falciparum
Experiment: MMV: Measure of pLDH activity as indication of parasite viability. Gametocytogenesis of 3D7 Plasmodium falciparum strain was induced in vitro and asexual parasites were depleted with N-acetylglucosamine. Gametocytes were treated with dihydroartemisinin, epoxomicin, methylene blue, primaquine, puromycin or chloroquine in 96-well plates and the pLDH activity was evaluated using a modified Makler protocol. Mosquito infectivity was measured by the standard membrane feeding assay.
Assay type: functional
Set-up: concentration or dose not given beside the values
Measured metric: Growth Inhibition (%)

{"Molecule": "Nc1nc(Nc2cccc(F)c2)nc2ccccc12", "Measured on": "Plasmodium falciparum", "Result": 18.202}
{"Molecule": "COc1ccc(CCN2CCC(CN(C)Cc3cnn(-c4ccccc4)c3)CC2)cc1", "Measured on": "Plasmodium falciparum", "Result": 34.868}
{"Molecule": "CC1CC2=C(CC1CNCCCN(C)C)C(C)(C)CCC2 (centres undefined)", "Measured on": "Plasmodium falciparum", "Result": 91.9455}
{"Molecule": "COc1ccc(C2N(C)c3ccccc3N2C)cc1", "Measured on": "Plasmodium falciparum", "Result": 3.9982}
{"Molecule": "Cc1cc(C)cc(Nc2cc(C)nc3nc(C(F)(F)F)nn23)c1", "Measured on": "Plasmodium falciparum", "Result": -10.2568}
{"Molecule": "CCCc1c(C)nc2ccccc2c1O", "Measured on": "Plasmodium falciparum", "Result": 34.5652}
{"Molecule": "Cc1cc(=O)oc2c1ccc1oc(C(=O)c3ccccc3)c(C)c12", "Measured on": "Plasmodium falciparum", "Result": 19.4}
{"Molecule": "COc1ccc(Nc2nc(N/N=C/c3ccc(O)cc3)nc(Nc3ccc([N+](=O)[O-])cc3)n2)cc1", "Measured on": "Plasmodium falciparum", "Result": 24.1364}
{"Molecule": "CCOC(=O)c1c(C)n(-c2ccccc2)c2ccc(OC(=O)c3cc(OC)c(OC)c(OC)c3)cc12", "Measured on": "Plasmodium falciparum", "Result": -1.486}
{"Molecule": "CC1CCCCN1CCCNC(=O)c1ccc2c(c1)sc1nc(-c3ccc(F)cc3)cn12 (centres undefined)", "Measured on": "Plasmodium falciparum", "Result": 16.9994}
{"Molecule": "CCOc1ccc(Nc2c3ccccc3nc3ccccc23)cc1.Cl", "Measured on": "Plasmodium falciparum", "Result": 2.291}
{"Molecule": "O=C(Nc1ccccc1O)c1ccc(Oc2cccc(C(=O)Nc3ccccc3O)c2)cc1", "Measured on": "Plasmodium falciparum", "Result": 23.386}
{"Molecule": "COc1ccc(CN2CCCC(C(=O)c3ccc(C(F)(F)F)cc3)C2)c(O)c1 (centres undefined)", "Measured on": "Plasmodium falciparum", "Result": 43.708}
{"Molecule": "Oc1c(C(Nc2ccccn2)c2cccc(Oc3ccccc3)c2)ccc2cccnc12 (centres undefined)", "Measured on": "Plasmodium falciparum", "Result": 50.44}
{"Molecule": "CCOC(=O)C1=C(C)N=c2sc(=Cc3ccccc3O)c(=O)n2C1c1ccc(OC)c2ccccc12 (centres undefined)", "Measured on": "Plasmodium falciparum", "Result": 6.5248}
{"Molecule": "Oc1ccc(C(=C(Cl)Cl)c2ccc(O)cc2)cc1", "Measured on": "Plasmodium falciparum", "Result": 9.2564}
{"Molecule": "CCOc1cccc2sc(N(Cc3cccnc3)C(=O)C3CCCCC3)nc12", "Measured on": "Plasmodium falciparum", "Result": 1.8442}
{"Molecule": "CCCCNc1nc(NC(C)(C)C)nc(NC(C)(C)C)n1", "Measured on": "Plasmodium falciparum", "Result": 40.1594}
{"Molecule": "Cc1cc(NC(=O)c2cccc(C(F)(F)F)c2)n(-c2nc(-c3ccc4c(c3)OCO4)cs2)n1", "Measured on": "Plasmodium falciparum", "Result": 1.3202}

Every entry's value here was drawn from ChEMBL document CHEMBL3301555.
